The measured values listed here are drawn from ChEMBL document CHEMBL1177807.

Consider compounds characterized by their pIC50 with Cyclin-dependent kinase 2 (Homo sapiens).
// scale note: pIC50 = -log10(conc_M); give the bare number

Request the reported pIC50 associated with `NCCCn1nc(C(N)=O)c2c1-c1nc(Nc3ccccc3)ncc1CC2`
9.00

Now the compound `Cc1cc(CNC(=O)c2nn(CCCN)c3c2CCc2cnc(Nc4cccc(CC(=O)N(C)C)c4)nc2-3)ccn1`
6.30

Now the compound `Cc1cc(CNC(=O)c2nn(C)c3c2CCc2cnc(Nc4ccc(N5CCN(C)CC5)cc4)nc2-3)ccn1`
6.50

Now the compound `NC(=O)Cn1nc(C(N)=O)c2c1-c1nc(Nc3ccccc3)ncc1CC2`
8.00

----------
Target sequence: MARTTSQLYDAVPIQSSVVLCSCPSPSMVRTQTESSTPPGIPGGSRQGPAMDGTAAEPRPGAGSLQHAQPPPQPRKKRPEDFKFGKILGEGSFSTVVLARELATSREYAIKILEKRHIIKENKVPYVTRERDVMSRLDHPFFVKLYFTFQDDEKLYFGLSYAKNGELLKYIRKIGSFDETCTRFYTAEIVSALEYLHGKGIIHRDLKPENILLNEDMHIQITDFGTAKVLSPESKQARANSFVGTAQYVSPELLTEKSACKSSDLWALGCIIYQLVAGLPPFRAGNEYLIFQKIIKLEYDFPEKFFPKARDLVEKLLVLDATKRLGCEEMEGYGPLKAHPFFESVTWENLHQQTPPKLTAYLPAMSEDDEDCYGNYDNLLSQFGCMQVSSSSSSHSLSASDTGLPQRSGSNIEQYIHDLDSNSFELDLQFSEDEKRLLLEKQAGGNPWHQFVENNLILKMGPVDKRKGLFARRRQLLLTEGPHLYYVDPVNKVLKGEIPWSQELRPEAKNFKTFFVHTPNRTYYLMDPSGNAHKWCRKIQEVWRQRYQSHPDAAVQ
Reported metric: IC50 (nM)
Answer with a number only, understood to be in nM.

Request the reported IC50 associated with `NCCCn1nc(C(N)=O)c2c1-c1nc(Nc3ccccc3)ncc1CC2`
36
